All figures here come from the supplement of paper PMC4121296.

Test system: Danio rerio embryo (fli1:egfp)
Experiment: pericardial area at 72 hpf (image area units (not stated)); higher = larger pericardial area (edema)
Details: 0.098 µM; exposure: 5-72 hpf
value kind: pericardial area at 72 hpf

{"compound": "C#CCN1C(=O)COc2cc(F)c(N3C(=O)C4=C(CCCC4)C3=O)cc21", "value reported": 17800}
{"compound": "CCCCSP(=O)(SCCCC)SCCCC", "value reported": 13600}
{"compound": "N#Cc1c(Cl)c(Cl)c(Cl)c(C#N)c1Cl", "value reported": 24100}
{"compound": "CC(C)Oc1cc(-n2nc(C(C)(C)C)oc2=O)c(Cl)cc1Cl", "value reported": 13700}
{"compound": "CC1(C)C(C=C(Cl)Cl)C1C(=O)OC(C#N)c1ccc(F)c(Oc2ccccc2)c1 (centres undefined)", "value reported": 14000}
{"compound": "COC(=O)N(C(=O)N1CO[C@@]2(C(=O)OC)Cc3cc(Cl)ccc3C2=N1)c1ccc(OC(F)(F)F)cc1", "value reported": 13400}
{"compound": "Cc1nn(-c2cc(NS(C)(=O)=O)c(Cl)cc2Cl)c(=O)n1C(F)F", "value reported": 16100}
{"compound": "CO/N=C(/C(=O)OC)c1ccccc1CO/N=C(\\C)c1cccc(C(F)(F)F)c1", "value reported": 10600}
{"compound": "C[C@@]1(c2ccc(Oc3ccccc3)cc2)OC(=O)N(Nc2ccccc2)C1=O (racemic)", "value reported": 13700}
